target: α4β7 integrin (Homo sapiens (Human), UniProt P13612+P26010); assay: α4β7 Integrin Cell Capture Assay; assay type: cell-based; conditions: Table 2; capture of α4β7 expressing RPM18866 cells on MadCAM-1 extracellular domain-coated plate
Sequence (P13612 34-1032): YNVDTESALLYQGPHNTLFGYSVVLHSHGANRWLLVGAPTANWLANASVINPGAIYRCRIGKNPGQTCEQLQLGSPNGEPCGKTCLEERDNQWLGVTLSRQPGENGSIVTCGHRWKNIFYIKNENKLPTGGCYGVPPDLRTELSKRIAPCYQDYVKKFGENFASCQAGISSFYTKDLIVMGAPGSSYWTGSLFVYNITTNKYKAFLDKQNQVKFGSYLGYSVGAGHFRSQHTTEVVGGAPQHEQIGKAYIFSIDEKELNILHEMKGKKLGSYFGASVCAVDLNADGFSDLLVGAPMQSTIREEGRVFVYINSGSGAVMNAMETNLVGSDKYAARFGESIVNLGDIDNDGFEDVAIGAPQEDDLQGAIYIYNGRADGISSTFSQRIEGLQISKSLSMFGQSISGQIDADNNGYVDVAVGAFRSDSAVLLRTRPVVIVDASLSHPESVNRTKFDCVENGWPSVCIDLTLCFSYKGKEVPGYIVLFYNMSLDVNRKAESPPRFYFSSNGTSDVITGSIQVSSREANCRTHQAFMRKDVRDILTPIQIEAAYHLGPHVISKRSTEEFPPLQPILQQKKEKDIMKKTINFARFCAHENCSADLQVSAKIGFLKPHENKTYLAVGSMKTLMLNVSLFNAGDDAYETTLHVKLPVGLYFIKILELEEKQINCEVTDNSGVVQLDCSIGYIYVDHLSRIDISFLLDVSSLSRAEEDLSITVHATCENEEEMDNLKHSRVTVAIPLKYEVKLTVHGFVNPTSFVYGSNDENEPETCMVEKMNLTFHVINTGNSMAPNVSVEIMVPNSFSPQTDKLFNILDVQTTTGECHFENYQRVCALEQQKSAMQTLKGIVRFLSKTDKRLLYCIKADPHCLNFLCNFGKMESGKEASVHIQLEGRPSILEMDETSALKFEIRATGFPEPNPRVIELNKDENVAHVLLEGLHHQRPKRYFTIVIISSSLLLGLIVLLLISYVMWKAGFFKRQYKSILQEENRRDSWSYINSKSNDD
Sequence (P26010 20-798): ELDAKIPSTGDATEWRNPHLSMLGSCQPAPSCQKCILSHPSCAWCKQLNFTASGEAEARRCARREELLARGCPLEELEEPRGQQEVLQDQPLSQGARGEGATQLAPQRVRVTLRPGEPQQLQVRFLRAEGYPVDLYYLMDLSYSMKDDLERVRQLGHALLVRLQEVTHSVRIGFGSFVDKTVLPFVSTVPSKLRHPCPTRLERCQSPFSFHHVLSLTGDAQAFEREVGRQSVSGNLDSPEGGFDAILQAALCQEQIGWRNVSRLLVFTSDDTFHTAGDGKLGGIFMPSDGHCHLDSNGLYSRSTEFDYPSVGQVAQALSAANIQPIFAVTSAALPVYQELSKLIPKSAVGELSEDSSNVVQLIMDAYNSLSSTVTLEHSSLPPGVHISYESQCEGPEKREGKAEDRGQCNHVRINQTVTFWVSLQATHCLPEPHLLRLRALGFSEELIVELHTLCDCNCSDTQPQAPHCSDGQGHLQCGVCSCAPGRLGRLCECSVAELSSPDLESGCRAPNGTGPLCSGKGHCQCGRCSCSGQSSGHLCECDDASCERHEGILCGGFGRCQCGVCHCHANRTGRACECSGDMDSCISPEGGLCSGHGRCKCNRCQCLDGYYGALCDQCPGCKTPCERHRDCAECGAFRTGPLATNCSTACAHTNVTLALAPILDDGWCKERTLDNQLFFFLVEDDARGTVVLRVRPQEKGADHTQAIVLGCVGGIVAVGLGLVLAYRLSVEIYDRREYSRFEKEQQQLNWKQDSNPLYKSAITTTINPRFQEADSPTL
quantity: pEC50
For clarity, pEC50 is expressed as the negative log10 of concentration in mol/L.

Some molecules with known pEC50 results, for comparison:
CC[C@@H](Nc1cc(F)c(C(=O)N[C@@H](Cc2ccc(-c3c(C(F)(F)F)ccc4cccnc34)c3ncccc23)C(=O)O)c(F)c1)C(F)(F)F :: 8.19
CC[C@@H](Nc1cc(F)c(C(=O)N[C@@H](Cc2ccc(-c3cn(C)c(=O)cc3C(F)(F)F)c3ncccc23)C(=O)O)c(F)c1)C(F)(F)F :: 8.11
Cc1nc(-c2ccc(C[C@H](NC(=O)c3c(F)cccc3F)C(=O)O)c3cccnc23)c(C(F)(F)F)c2ccccc12 :: 7.84
O=C(N[C@@H](Cc1ccc(-c2nccc(C(F)(F)F)n2)c2ncccc12)C(=O)O)c1c(F)cc(N2CCOC[C@@H]2C(F)(F)F)cc1F :: 7.82

Shifting focus to the molecule that follows.
pEC50 in this record for O=C(N[C@@H](Cc1ccc(-c2ncc3ccc(C4CC4)cc3c2C(F)(F)F)c2ncccc12)C(=O)O)c1c(Cl)cccc1Cl : 7.84
